Tested on: K562 cells
assay_info: Cytotoxicity / viable cell count in K562 leukemic cells
Type: cell-based, human
cond: read-out: EC50, decrease in the number of viable K562 cells; 24 hrs; ± 0.08 (95% Confidence Limits)
observation_type: EC50

Provide one value: measured EC50 of O=C1c2ccccc2C(=O)c2oc(-c3ccccc3)nc21 [SJB2-043]
~1070 nM

Source listed as paper PMC4089878.
